test system: Sarcina lutea 8340; experiment: MIC against human bacteria in vitro; assay type: cell-based; settings: Micrococcus luteus; Sarcina lutea 8340; 5% chocolated horse blood agar, 18 hours; read-out: MIC
Please go through the items and note down their MIC.

Kindly note the recorded MIC for C/C(=C\c1ncc(-c2ccccc2[N+](=O)[O-])o1)C[C@@H]1OC[C@H](C[C@@H]2O[C@H]2[C@@H](C)[C@H](C)O)[C@@H](O)[C@H]1O [Example 26] , which is > 128 µg/mL

Kindly note the recorded MIC for C/C(=C\c1ncc(-c2cccc(C#N)c2)o1)C[C@@H]1OC[C@H](C[C@@H]2O[C@H]2[C@@H](C)[C@H](C)O)[C@@H](O)[C@H]1O [Example 5] , which is > 50 µg/mL

Kindly note the recorded MIC for C/C(=C\c1ncc(-c2ccccc2)s1)C[C@@H]1OC[C@H](C[C@@H]2O[C@H]2[C@@H](C)[C@H](C)O)[C@@H](O)[C@H]1O [Example 29, 2-(1-Normon-2-yl)-5-phenylthiazole A] , which is > 100 µg/mL

---

test system: Staph. aureus Oxford; assay: MIC against human bacteria in vitro; assay type: cell-based; conditions: Staphylococcus aureus; Staph. aureus Oxford; 5% chocolated horse blood agar, 18 hours; read-out: MIC
Labelling: MIC reported below 5 mg/L becomes 1; at or above becomes 0.

Challenge: Record C/C(=C\c1nc(C)c(C)o1)C[C@@H]1OC[C@H](C[C@@H]2O[C@H]2[C@@H](C)[C@H](C)O)[C@@H](O)[C@H]1O [Example 39, 4,5-Dimethyl-2-(1-normon-2-yl)oxazole A] : is its MIC strictly below 5 mg/L?
Response given: 0

Challenge: Record C/C(=C\c1ncc(-c2ccc(Br)cc2)o1)C[C@@H]1OC[C@H](C[C@@H]2O[C@H]2[C@@H](C)[C@H](C)O)[C@@H](O)[C@H]1O [Example 18] : is its MIC strictly below 5 mg/L?
Response given: 1

Challenge: Record C/C(=C\c1cc(C)on1)C[C@@H]1OC[C@H](C[C@@H]2O[C@H]2[C@@H](C)[C@H](C)O)[C@@H](O)[C@H]1O [Example 33, 5-Methyl-3-(1-normon-2-yl) isoxazole A] : is its MIC strictly below 5 mg/L?
Response given: 0

Challenge: Record COc1ccc(-c2cnc(/C=C(\C)C[C@@H]3OC[C@H](C[C@@H]4O[C@H]4[C@@H](C)[C@H](C)O)[C@@H](O)[C@H]3O)o2)cc1 [Example 4] : is its MIC strictly below 5 mg/L?
Response given: 1

---

Please go through the items and note down their MIC.
system: M. gallisepticum S6; experiment: MIC against mycoplasma in vitro; type: cell-based; details: Mycoplasmoides gallisepticum, 144 h; M. gallisepticum S6; 6 days, 37° C.; read-out: MIC

M. gallisepticum S6 data for "C/C(=C\c1ncc(-c2ccccc2)s1)C[C@@H]1OC[C@H](C[C@@H]2O[C@H]2[C@@H](C)[C@H](C)O)[C@@H](O)[C@H]1O" ; its MIC: > 10 µg/mL

M. gallisepticum S6 data for "C/C(=C\c1cc(C)on1)C[C@@H]1OC[C@H](C[C@@H]2O[C@H]2[C@@H](C)[C@H](C)O)[C@@H](O)[C@H]1O" ; its MIC: > 10 µg/mL

M. gallisepticum S6 data for "C/C(=C\c1ncc(CCCCCCCC(=O)O)o1)C[C@@H]1OC[C@H](C[C@@H]2O[C@H]2[C@@H](C)[C@H](C)O)[C@@H](O)[C@H]1O" ; its MIC: > 10 µg/mL

M. gallisepticum S6 data for "C/C(=C\c1nc(-c2ccccc2)c(-c2ccccc2)o1)C[C@@H]1OC[C@H](C[C@@H]2O[C@H]2[C@@H](C)[C@H](C)O)[C@@H](O)[C@H]1O" ; its MIC: > 10 µg/mL

M. gallisepticum S6 data for "C/C(=C/c1ncc(-c2ccccc2)o1)C[C@@H]1OC[C@H](C[C@@H]2O[C@H]2[C@@H](C)[C@H](C)O)[C@@H](O)[C@H]1O" ; its MIC: > 10 µg/mL

M. gallisepticum S6 data for "C/C(=C\c1ncc(-c2ccc(S(=O)(=O)N(C)C)cc2)o1)C[C@@H]1OC[C@H](C[C@@H]2O[C@H]2[C@@H](C)[C@H](C)O)[C@@H](O)[C@H]1O" ; its MIC: 0.5 µg/mL

M. gallisepticum S6 data for "COc1ccc(-c2cnc(/C=C(\C)C[C@@H]3OC[C@H](C[C@@H]4O[C@H]4[C@@H](C)[C@H](C)O)[C@@H](O)[C@H]3O)o2)cc1" ; its MIC: 2.5 µg/mL

M. gallisepticum S6 data for "COC(=O)c1ccc(-c2cnc(/C=C(\C)C[C@@H]3OC[C@H](C[C@@H]4O[C@H]4[C@@H](C)[C@H](C)O)[C@@H](O)[C@H]3O)o2)cc1" ; its MIC: 2.5 µg/mL

M. gallisepticum S6 data for "C/C(=C\c1nc(C)c(-c2ccccc2)o1)C[C@@H]1OC[C@H](C[C@@H]2O[C@H]2[C@@H](C)[C@H](C)O)[C@@H](O)[C@H]1O" ; its MIC: > 10 µg/mL

M. gallisepticum S6 data for "COC(=O)CCCCCCCc1cnc(/C=C(\C)C[C@@H]2OC[C@H](C[C@@H]3O[C@H]3[C@@H](C)[C@H](C)O)[C@@H](O)[C@H]2O)o1" ; its MIC: > 10 µg/mL

M. gallisepticum S6 data for "C/C(=C\c1ncc(-c2cccc([N+](=O)[O-])c2)o1)C[C@@H]1OC[C@H](C[C@@H]2O[C@H]2[C@@H](C)[C@H](C)O)[C@@H](O)[C@H]1O" ; its MIC: 1 µg/mL

---

tested on: M. gallisepticum S6; experiment: MIC against mycoplasma in vitro; assay type: cell-based; settings: Mycoplasmoides gallisepticum, 144 h; M. gallisepticum S6; 6 days, 37° C.; read-out: MIC
Please go through the items and note down their MIC.
Reply with just the number (in µg/mL).

Kindly note the recorded MIC for C/C(=C\c1ncc(-c2ccc([S+](C)[O-])cc2)o1)C[C@@H]1OC[C@H](C[C@@H]2O[C@H]2[C@@H](C)[C@H](C)O)[C@@H](O)[C@H]1O (stereo partly shown) , which is 0.5

Kindly note the recorded MIC for "C/C(=C\c1ncc(-c2ccc([N+](=O)[O-])cc2)o1)C[C@@H]1OC[C@H](C[C@@H]2O[C@H]2[C@@H](C)[C@H](C)O)[C@@H](O)[C@H]1O" , which is 0.5

Kindly note the recorded MIC for "CSc1cccc(-c2cnc(/C=C(\C)C[C@@H]3OC[C@H](C[C@@H]4O[C@H]4[C@@H](C)[C@H](C)O)[C@@H](O)[C@H]3O)o2)c1" , which is 5

Kindly note the recorded MIC for "C/C(=C\c1ncc(-c2ccccc2)o1)C[C@@H]1OC[C@H](C[C@@H]2O[C@H]2[C@@H](C)[C@H](C)O)[C@@H](O)[C@H]1O" , which is 2.5

---

test system: K. aerogenes A; assay: MIC against human bacteria in vitro; assay type: cell-based; details: Klebsiella aerogenes; K. aerogenes A; 5% chocolated horse blood agar, 18 hours; read-out: MIC
Please go through the items and note down their MIC.

Kindly note the recorded MIC for "COC(=O)c1ccc(-c2cnc(/C=C(\C)C[C@@H]3OC[C@H](C[C@@H]4O[C@H]4[C@@H](C)[C@H](C)O)[C@@H](O)[C@H]3O)o2)cc1" , which is > 64 µg/mL

Kindly note the recorded MIC for "CSc1cccc(-c2cnc(/C=C(\C)C[C@@H]3OC[C@H](C[C@@H]4O[C@H]4[C@@H](C)[C@H](C)O)[C@@H](O)[C@H]3O)o2)c1" , which is > 128 µg/mL

Kindly note the recorded MIC for "C/C(=C\c1ncc(C)o1)C[C@@H]1OC[C@H](C[C@@H]2O[C@H]2[C@@H](C)[C@H](C)O)[C@@H](O)[C@H]1O" , which is > 128 µg/mL

Kindly note the recorded MIC for "C/C(=C\c1ncc(-c2ccc([N+](=O)[O-])cc2)o1)C[C@@H]1OC[C@H](C[C@@H]2O[C@H]2[C@@H](C)[C@H](C)O)[C@@H](O)[C@H]1O" , which is 100 µg/mL

Kindly note the recorded MIC for "C/C(=C\c1ncc(-c2cccc(C#N)c2)o1)C[C@@H]1OC[C@H](C[C@@H]2O[C@H]2[C@@H](C)[C@H](C)O)[C@@H](O)[C@H]1O" , which is > 50 µg/mL

Kindly note the recorded MIC for "C/C(=C\c1ncc(-c2ccc(CO)cc2)o1)C[C@@H]1OC[C@H](C[C@@H]2O[C@H]2[C@@H](C)[C@H](C)O)[C@@H](O)[C@H]1O" , which is > 128 µg/mL

Kindly note the recorded MIC for "C/C(=C\c1ncc(-c2ccc(C(=O)O)cc2)o1)C[C@@H]1OC[C@H](C[C@@H]2O[C@H]2[C@@H](C)[C@H](C)O)[C@@H](O)[C@H]1O" , which is > 64 µg/mL

Kindly note the recorded MIC for "C/C(=C\c1ncc(-c2ccc(C=O)cc2)o1)C[C@@H]1OC[C@H](C[C@@H]2O[C@H]2[C@@H](C)[C@H](C)O)[C@@H](O)[C@H]1O" , which is > 128 µg/mL

Kindly note the recorded MIC for "C/C(=C\c1ncc(-c2cccc([N+](=O)[O-])c2)o1)C[C@@H]1OC[C@H](C[C@@H]2O[C@H]2[C@@H](C)[C@H](C)O)[C@@H](O)[C@H]1O" , which is > 128 µg/mL

Kindly note the recorded MIC for "C/C(=C\c1cc(C)on1)C[C@@H]1OC[C@H](C[C@@H]2O[C@H]2[C@@H](C)[C@H](C)O)[C@@H](O)[C@H]1O" , which is > 128 µg/mL

Kindly note the recorded MIC for "C/C(=C\c1nc(C)c(C)o1)C[C@@H]1OC[C@H](C[C@@H]2O[C@H]2[C@@H](C)[C@H](C)O)[C@@H](O)[C@H]1O" , which is > 100 µg/mL
